This collection of values is drawn from PubChem BioAssay (NCI).

- Tested on: MCF7 breast
- assay comment: NCI-60 one-dose screen, 48 h (100 = growth as untreated, 0 = no growth, -100 = all killed)
- particulars: 10 µM
About 83,000 compounds went through this panel and 20% of them were active in at least one assay; those are over-represented in the sample as a whole.
Threshold rule: growth greater than or equal to 90% is yes (1); below that, no (0).

Check out these entries, answers already filled in.
• O=S(=O)(O)c1cccc(Nc2ccc3ccccc3c2)c1 = yes (1)
• CC(C)C[C@H](NC(=O)Cn1cccc(CNC(=O)c2ccccc2)c1=O)B(O)O = no (0)
• COc1cc2cc(Oc3ccc(NC(=O)Nc4ccc(Cl)c(Cl)c4)cc3)c(C)nc2cc1OC = no (0)
• Cc1c(Cl)cccc1NC(=O)CCCl = yes (1)

Exam item: // inclusive: growth at least 90%? input: `O=C(CN1CCN(C(=O)c2ccccc2)CC1)Nc1ccccc1SCc1ccccc1`
Marked response: no (0)

Exam item: Do the same for `CN(C)CCN(Cc1ccccc1)c1ccc2ccccc2n1` please
Marked response: no (0)

Exam item: Now try `CCNCC(=O)Nc1ccc(C(=O)OCC)cc1` .
Marked response: yes (1)

Exam item: Now consider `CCn1c(SCCc2ccccc2)nnc1-c1nn(-c2ccc(Cl)cc2Cl)c(-c2ccc(Cl)cc2)c1C` and answer again.
Marked response: no (0)

Exam item: Check `NC1=CC(=O)C(=O)c2cccnc21` too.
Marked response: no (0)

Exam item: Please give the result for `CCN(CC)CCNc1ccc(C)c2sc3cc(Cl)ccc3c(=O)c12` too.
Marked response: no (0)

Exam item: Now consider CCC(C)[C@H](NC(C)=O)C(=O)N[C@@H](CCCNC(=N)N)C(=O)N[C@@H](CCCCN)C(=O)N[C@@H](CC1CCC(O)CC1)C(=O)NC(C(=O)N[C@@H](CCSC)C(=O)N[C@@H](CCCNC(=N)N)C(=O)N[C@@]1(C)CCC/C=C\CCC[C@@](C)(C(=O)NC(C(=O)N[C@@H](CCC(=O)O)C(=O)N[C@@H](CC(C)C)C(=O)N[C@H](C(=O)N[C@@H](CCC(=O)O)C(N)=O)C(C)C)[C@@H](C)O)NC(=O)[C@H](CCC(N)=O)NC(=O)[C@H](CC(C)C)NC(=O)[C@H](CC(C)C)NC1=O)[C@@H](C)O (stereo partly specified) and answer again.
Marked response: yes (1)

Exam item: Follow-up entry: `C=C(C)[C@@H]1CC[C@]2(COCCC#N)CC[C@]3(C)[C@H](CC[C@@H]4[C@@]5(C)Cc6c([nH]c7ccccc67)C(C)(C)[C@@H]5CC[C@]43C)[C@@H]12`
Marked response: no (0)

Exam item: Next entry: `COC(=O)c1c[nH]c2cc(OC(C)C)c(OC(C)C)cc2c1=O`
Marked response: no (0)

Exam item: Same for `S=C(NCc1ccccc1)NCc1ccccc1`
Marked response: yes (1)

Exam item: Same read-out for `COc1ccc(-c2cc(-c3ccccc3)nc(SCCCCCCC(=O)NO)n2)cc1` ?
Marked response: no (0)

Exam item: Another: `Nc1nc(-c2cccnc2)nc2c1sc(=S)n2-c1ccccc1`
Marked response: yes (1)

----------
- Tested on: OVCAR-3 ovarian
- assay comment: NCI-60 one-dose screen, 48 h (100 = growth as untreated, 0 = no growth, -100 = all killed)
- particulars: 10 µM
The panel holds about 83,000 compounds, 20% with a hit somewhere; the sample as a whole holds those more often. The source made the active and inactive calls. How the source made its calls: active means growth percent below 10; inactive means the rest.
readout type: growth

Field: example entries. Status: answers known.
• O=C1C=C(Nc2cccc(Br)c2)c2ccccc2C1=O = 38.9% (inactive)
• COc1cc(C2CC(c3cc(Cl)c(C)cc3O)=NN2c2ccc(S(N)(=O)=O)cc2)cc(OC)c1OC (stereo not drawn) = 20.7% (inactive)
• COc1cc2cc(Oc3ccc(NC(=O)Nc4ccc(Cl)c(Cl)c4)cc3)c(C)nc2cc1OC = -10% (active)
• OC[C@H]1OC([S-])[C@H](O)[C@@H](O)[C@@H]1O.[Au+] (stereo partly drawn) = 128% (inactive)

# input for lookup
Exam item: Can you look up the measured growth of Cc1c(O)c(=O)ccn1C1CCC(CC2CCC(n3ccc(=O)c(O)c3C)CC2)CC1 (stereo not drawn) for me?
Marked response: 28.3% (inactive)

----------
# growth values compiled below
- Tested on: HCT-15 colon
- assay comment: NCI-60 one-dose screen, 48 h (100 = growth as untreated, 0 = no growth, -100 = all killed)
- particulars: 10 µM
About 83,000 compounds went through this panel and 20% of them were active in at least one assay; those are over-represented in the sample as a whole.
Kindly provide the numeric value in % only, without the unit symbol.

Guide cases for growth, answers given:
- O=C1c2ccccc2C(=O)c2c1ccc(C(Br)Br)c2Cl: 44
- CC(=O)[C@@]12O[C@](C)(c3ccccc3)O[C@@H]1CC1C3CCC4=CC(=O)CC[C@]4(C)C3CC[C@@]12C (stereo partly specified): 71
- CCOC(=O)C(C)(c1ccccc1)c1ccccc1: 104
- CCOC(=O)c1cc(C(=O)c2cc(OC)c(OC)c(OC)c2)n2ccc(-c3cc[n+](CC(=O)c4cc(OC)c(OC)c(OC)c4)cc3)cc12: 83.3

Exam item: Please report the recorded growth for `O=C(O)Cc1ccc(O)c(O)c1` .
Marked response: 96.4

Exam item: Same question for `O[C@@H]1CO[C@H]2[C@@H]1OC[C@@H]2O` please.
Marked response: 102

----------
- Tested on: NCI-H23 lung
- assay comment: NCI-60 one-dose screen, 48 h (100 = growth as untreated, 0 = no growth, -100 = all killed)
- particulars: 10 µM
Compounds without any hit were thinned out: in the full panel of roughly 83,000, 20% have a hit.
Output T for growth not less than 70%; output F otherwise.

Worked cases, answers included:
- C#CC(C)(O)[C@@H]1C[C@H](CC(=O)O)C1(C)C (stereo not given in full): T
- CS(=O)(=O)c1nccc(-c2c(-c3cccc(OCc4ccccc4)c3)nc3sccn23)n1: F
- Clc1ccc(Cc2ccncc2)cc1: T
- COc1cc(C2CC(c3ccccc3)=NN2C(C)=O)cc(OC)c1OC (stereo not given): F
- Cc1cn(-c2cccc(NC(=O)c3ccc(C)c(Nc4nccc(-c5cccnc5)n4)c3)c2)cn1: F

Exam item: // inclusive: growth at least 70%? input: O=c1[nH]c(=O)n(C2C[C@H](O)[C@@H](CO)O2)cc1C(F)(F)F (stereo not given in full)
Marked response: T

Exam item: Now the same for `CN(C)CCOc1ccccc1NC1=C(Cl)C(=O)C(Nc2ccccc2OCCN(C)C)=C(Cl)C1=O`
Marked response: F

Exam item: One more compound: COc1ccc2c(c1)C(CC(=O)NN)CCC2 (stereo not given)
Marked response: T

Exam item: Next record, please: OC[C@H]1OC([S-])[C@H](O)[C@@H](O)[C@@H]1O.[Au+] (stereo not given in full)
Marked response: T

Exam item: Follow-up item: `C=CCNCCN1C(=O)c2ccc3c4c(ccc(c24)C1=O)C(=O)N(CCNCC=C)C3=O`
Marked response: F

Exam item: Proceed to `Nc1c(Br)cc(Br)c2c1[nH]c(=O)c1ccccc12`
Marked response: F

----------
- System: OVCAR-8 ovarian
- assay comment: NCI-60 one-dose screen, 48 h (100 = growth as untreated, 0 = no growth, -100 = all killed)
- particulars: 10 µM
About 83,000 compounds went through this panel and 20% of them were active in at least one assay; those are over-represented in the sample as a whole.
readout type: growth (%)
Give the value, in units of %, as a plain number.

See these solved cases before continuing.
• Cc1noc(C)c1CSc1ccccc1C(=O)N1CCN(c2cccc(C(F)(F)F)c2)CC1 = 94.2
• CC[C@@H]1NC(=O)[C@H]([C@H](O)[C@H](C)C/C=C/c2ccc(CN3C(=O)CCCC3=O)cc2)N(C)C(=O)[C@H](C(C)C)N(C)C(=O)[C@H](CC(C)C)N(C)C(=O)[C@H](CC(C)C)N(C)C(=O)[C@@H](C)NC(=O)[C@H](C)NC(=O)[C@H](CC(C)C)N(C)C(=O)[C@H](C(C)C)NC(=O)[C@H](CC(C)C)N(C)C(=O)CN(C)C1=O = 68.4
• COc1ccc(/C=C/C(=O)C(=O)/C=C/c2ccc(OC)c(OC)c2)cc1OC = 19.5

Exam item: Quick one: growth of `O=C(Nc1ccc(F)cc1)c1cc2ccccc2cc1O` ?
Marked response: 82.7

Exam item: Could you do the same for `O=C(N/N=C/c1c(Cl)cccc1Cl)c1ccccc1Nc1cccc(C(F)(F)F)c1` , please?
Marked response: 103

----------
- Test system: K-562 leukemia
- assay comment: NCI-60 one-dose screen, 48 h (100 = growth as untreated, 0 = no growth, -100 = all killed)
- particulars: 10 µM
The panel holds about 83,000 compounds, 20% with a hit somewhere; the sample as a whole holds those more often.
readout type: growth (%)
Entry rule: numbers only, all in %.

Check out these entries, answers already filled in.
• COc1ccc(/C=C2\CCCC3=C2NC(N)=NC3c2ccc(OC)cc2)cc1 (configuration not stated) = 107
• CC(=O)N[C@H](C(=O)N[C@@H](CCCNC(=N)N)C(=O)N[C@@H](CCCCN)C(=O)N[C@@H](CCCNC(=N)N)C(=O)N[C@]1(C)CCCCCC/C=C\CCC[C@@](C)(C(=O)N[C@@H](CCCNC(=N)N)C(=O)N[C@@H](CCC(=O)O)C(=O)N[C@@H](CC(C)C)C(=O)N[C@H](C(=O)N[C@@H](CCC(=O)O)C(N)=O)C(C)C)NC(=O)[C@H](CCC(N)=O)NC(=O)[C@H](CC(C)C)NC(=O)[C@H](CC(C)C)NC(=O)[C@H](CCCNC(=N)N)NC(=O)[C@H](CCCNC(=N)N)NC(=O)[C@H](CC(C)C)NC1=O)C(C)C = -18.8
• Cc1ccc(C(=O)/C=C/c2ccccc2)s1 = 108
• CCOC(=O)N/N=C/c1ccc(OC)c(OC)c1 = 99.9
• COc1cccc(N=Nc2cccc(OC)c2)c1 = 87.8
• COc1cc(-c2nn(-c3cccc(NC(=O)CCN4CCN(c5ccccc5)CC4)c3)cc2-c2ccncc2)ccc1Cl = 11.3

Proceed to the following item.
Exam item: Sample `O=C(CCc1nnc2sc(-c3cc(O)c(O)c(O)c3)nn12)c1nc2ccccc2[nH]1` — what was its growth?
Marked response: 8.3
